Source of measurements: the supplement of paper PMC9170038

# System: MS2 coat protein
# test.method.notes: apparent KD of MS2 coat protein; designed switch direction (-1 OFF switch, 1 ON switch): -1; higher = weaker reporter binding
# conditions: input ligand: FMN 200 uM
observed.property: apparent KD of MS2 coat protein

# count of solved cases: 2
Task: Give reported apparent KD of MS2 coat protein value for UGUGAGCAUGUCAGGAUAUGCAUCACAGUUAGGAUGUAGAAGGGACAUGAGGAUCACCCAUGUAGCUUCAGGUA [BmEX4 A.20] (Eterna round: R97, puzzle: Brourd's mod of Exclusion 4)
Output: 0.0177 µM

Task: Output apparent KD of MS2 coat protein of CAAAUGGUUUAAGGAUAUUACAUGAGGAUCACCCAUGUUAUCGGGAUGCUUCUCUUAAAAUACGGUAAGAAGGUAGACCUAAUC [Ceveso] (Eterna round: R96, puzzle: Exclusion NG 2)
Output: 0.451 µM

In the following, a different sequence is considered.
Task: Output apparent KD of MS2 coat protein of AAUAACUUAGGAUAUACAUGAGGAUCACCCAUGUCCCACCCGUUACCCAUGACCAUAUGUAGAAGGAAGAAGAA [Exy#8] (Eterna round: R97, puzzle: Exclusion 3)
Output: 0.028 µM

###

# System: MS2 coat protein
# test.method.notes: apparent KD of MS2 coat protein; designed switch direction (-1 OFF switch, 1 ON switch): -1; higher = weaker reporter binding
# conditions: input ligand: none
observed.property: apparent KD of MS2 coat protein (nM)
Use nM as the unit, but write only the number.

These solved cases illustrate the format of a correct answer.
Task: Respond only with apparent KD of MS2 coat protein recorded for AGCUUUGGAGGAUAUUGAGCGGAAAACAUGAGGAUCACCCAUGUAAGUGGGCGAAAUGUAUAAGAAGGCCGAAGGU [Eternabot (L2) Solution 15] (Eterna round: R97, puzzle: Exclusion 5)
Output: 278

Task: Tell me its apparent KD of MS2 coat protein given GUAACAACUAGAGGAUAUCAGCACGUGUUGUGCUGAGAAGGCUAGAGUUACAUGAGGAUCACCCAUGUCUAGAGAUCAUUAAUU [ENG1/13-A4] (Eterna round: R96, puzzle: Exclusion NG 1) as the entry.
Output: 49.1

Task: Query apparent KD of MS2 coat protein for AAUCAACAUGAGGAUCACCCAUGUGAGGAUAUAGGCAUGCAUGCAUGCAUGCAUGCAACUAGAAGGCACAAUAC [Design #18] (Eterna round: R97, puzzle: Exclusion 1)
Output: 37.4

More entries:
Task: // fetch apparent KD of MS2 coat protein given entry GCAGCAUAGUUUACUAACUGUUACAUGAGGAUCACCCAUGUUUAGGAUAUGGUCUGGAUUACAGGCCAGAAGGAAACAAGCUGC [Eli exng3 - 033] (Eterna round: R96, puzzle: Exclusion NG 3)
Output: 12.4

Task: Consider the sequence ACGAAACAUGAGGAUCACCCAUGUGAGGAUAUUAUGUUAUAAUACAUACUAUACAUAUUAAGAAGGCACAUUGG [Design #12] (Eterna round: R97, puzzle: Exclusion 1) and give its recorded apparent KD of MS2 coat protein.
Output: 74.6

Task: Supply measured apparent KD of MS2 coat protein of UUGAUUGGUGUAGGAUAUGUAUGAGGAUCACCCAUUAAUAAAUUUUAACCACGAGGAUCACCCGUGUAGAAGGACAUUGGUCAA [pwkr exNG2 2xF5 1xFMN.19] (Eterna round: R96, puzzle: Exclusion NG 2) in your reply.
Output: 38.4

Task: Report apparent KD of MS2 coat protein, nothing else, for this sequence: UGACUUCAUAUCACAUGAGGAUCACCCAUGUUAUUCAUCUCGUAGGAUAUCGAGGUUUAUUAUUUCGAGAAGGACGUAUUGUUU [JR_ExcNG3_Sub075] (Eterna round: R96, puzzle: Exclusion NG 3)
Output: 45.5

Task: Fill in apparent KD of MS2 coat protein for record GGAUUCCAGUGAGGAUAUCCAAAUAAAAGCCAUGGAGAAGGCACAUGAGGAUCACCCAUGUAGGGCAAUAGCAGCGACCACUGC [Raqube] (Eterna round: R96, puzzle: Exclusion NG 1)
Output: 29.3

Task: Fill in reported apparent KD of MS2 coat protein for this entry: UUUAACGAUGAGGAUAUAUGAUAUCAAAGCAUCAUAGAAGGCAUCACAUGAGGAUCACCCAUGUGAUCUUCUUU [Mat - Exclusion 6 - JL Mod - D29] (Eterna round: R97, puzzle: Exclusion 6)
Output: 16.6
